System: MM.1S cells
Method Description: Proliferation inhibition (IC50) in MM.1S cells, cell viability assay
Condition Info: Homo sapiens, MM1.S, 72 h, read-out: IC50 (nM), proliferation inhibitory activity of MM.1S cells (half inhibitory concentration)
Measured log10 of IC50, listed per entry for reference.
log10 IC50, nM

>>> value("O=C1CCC(N2Cc3c(SCc4nc(CN5CC6CCCCC6C5)cs4)cccc3C2=O)C(=O)N1 (centres unmarked)")
0.16
>>> value("O=C1CCC(N2Cc3c(SCCCCCCCN4CCCCCCC4)cccc3C2=O)C(=O)N1 (centres unmarked)")
-1.52
>>> value("O=C1CCC(N2Cc3c(SCc4ccc(CNC(C5CC5)C5CC5)o4)cccc3C2=O)C(=O)N1 (centres unmarked)")
-0.15

Field request: log10 of IC50 | item: CC1(C)CCC(NCCc2ccc(CSc3cccc4c3CN(C3CCC(=O)NC3=O)C4=O)cc2)CC1 (centres unmarked)
-1.70

Can you look up the measured log10 of IC50 of CCN(CC)CCCCCCCCCCCSc1cccc2c1CN(C1CCC(=O)NC1=O)C2=O (centres unmarked) for me?
-0.96

Given O=C1CCC(N2Cc3c(SCCCCCCCCN4CCNCC4)cccc3C2=O)C(=O)N1 (centres unmarked) , state its recorded log10 of IC50.
0.59

What value of log10 of IC50 has been reported for the following compound? Cc1ccc(NC(=O)NCCSc2cccc3c2CN(C2CCC(=O)NC2=O)C3=O)cc1Cl (centres unmarked)
0.58

Reported log10 of IC50 for CN1CCCN(CCCCCCCCSc2cccc3c2CN(C2CCC(=O)NC2=O)C3=O)CC1 (centres unmarked) : what is it?
-0.12

Any idea what its log10 of IC50 is? The compound is O=C1CCC(N2Cc3c(SCCCO)cccc3C2=O)C(=O)N1 (centres unmarked)
0.35

Entry CCN(CC)CCCCCCCCCSc1cccc2c1CN(C1CCC(=O)NC1=O)C2=O (centres unmarked) has what log10 of IC50?
-0.60

What value of log10 of IC50 has been reported for the following compound? O=C1CCC(N2Cc3c(SCCCc4ccc(CN5CCCCC5)cc4)cccc3C2=O)C(=O)N1 (centres unmarked)
-0.85

Record request: log10 of IC50 value, item O=C1CCC(N2Cc3c(SCc4ccc(CN5CCCCCCC5)cc4)cccc3C2=O)C(=O)N1 (centres unmarked)
-1.52

For O=C1CCC(N2Cc3c(SCCCCCCCCN4CCCCC4)cccc3C2=O)C(=O)N1 (centres unmarked) , what is its reported log10 of IC50?
-0.92

Which log10 of IC50 is reported for this compound? CN(CCCCCCSc1cccc2c1CN(C1CCC(=O)NC1=O)C2=O)CC12CC3CC(CC(C3)C1)C2 (centres unmarked)
-1.23

Quick one: log10 of IC50 of O=C1CCC(N2Cc3c(SCCCCCCCN4CCCCC4=O)cccc3C2=O)C(=O)N1 (centres unmarked) ?
-1.29

Can you share its log10 of IC50? I mean this compound: O=C1CCC(N2Cc3c(SCc4ccc(CN5CCC(F)(F)CC5)cc4)cccc3C2=O)C(=O)N1 (centres unmarked)
-1.19

Query: log10 of IC50; subject: O=C1CCC(N2Cc3c(SCc4ccc(CCCN5CCOCC5)cc4)cccc3C2=O)C(=O)N1 (centres unmarked)
-1.10
